Tested on: MPNST complex spheroid with HUVEC/MSC, growth, % test/control
EXPERIMENT DESCRIPTION: Anticancer human tumor MPNST cell line growth inhibition [Asc];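 further: compounds left on spheroids for seven days before reading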
CONDITION DESCRIPTION: second compound 0.1 µM; first compound 0.316 µM; hits give low values
Measured viability, T/C values are reported for all entries that follow.
Express your answer in %, writing the number without its unit.

- O=C(c1ccc(F)c(F)c1Nc1ccc(I)cc1F)N1CC(O)([C@@H]2CCCCN2)C1 + CNC(C)C(=O)NC1CN(S(=O)(=O)c2cccc(S(=O)(=O)N3CCC4CCC(C(=O)NC(c5ccccc5)c5ccccc5)N4C(=O)C(NC(=O)C(C)NC)C3)c2)CCC2CCC(C(=O)NC(c3ccccc3)c3ccccc3)N2C1=O: 97.2
- COc1c(OCCCN2CCOCC2)ccc2c3n(c(=NC(=O)c4cnc(N)nc4)nc12)CCN3 + CNC(C)C(=O)NC1CN(S(=O)(=O)c2cccc(S(=O)(=O)N3CCC4CCC(C(=O)NC(c5ccccc5)c5ccccc5)N4C(=O)C(NC(=O)C(C)NC)C3)c2)CCC2CCC(C(=O)NC(c3ccccc3)c3ccccc3)N2C1=O: 13.8

Now, please, on to the next molecule.
Looking up O=C(c1cc(Cc2n[nH]c(=O)c3ccccc23)ccc1F)N1CCN(C(=O)C2CC2)CC1 + CNC(C)C(=O)NC1CN(S(=O)(=O)c2cccc(S(=O)(=O)N3CCC4CCC(C(=O)NC(c5ccccc5)c5ccccc5)N4C(=O)C(NC(=O)C(C)NC)C3)c2)CCC2CCC(C(=O)NC(c3ccccc3)c3ccccc3)N2C1=O , I found its viability, T/C recorded as 82.4
